Target: MazF_(E24A) (E. coli toxin MazF with glutamic acid 24 replaced with alanine, His6 tag removed) (E. coli, UniProt P0AE70 1-111, E24A)
Experiment: ITC; in presence of 10 uM SamF
property-label: pKd
Would you please state pKd, meaning minus log10 of the concentration in mol/L, as a bare number?

[ask] // returns reported pKd for input MazE (E. coli antitoxin) (natural protein, UniProt P0AE72 1-82, looked up, also called full-length MazE; the antitoxin) MIHSSVKRWGNSPAVRIPATLMQALNLNIDDEVKIDLVDGKLIIEPVRKEPVFTLAELVNDITPENLHENIDWGEPKDKEVW
[reply] 8.22
